- Format: in vivo, human
- test-conditions: male, human, plasma, oral, 100 mg
Measured AUC(0-t), listed per entry.
Express the result in ng·h/mL but write the number alone.

compound	unit-of-measurement	AUC(0-t)
Cc1c(Cl)c(C)[n+]([O-])c(Cl)c1-c1noc(-c2cc(O[C@@H]3O[C@H](C(=O)O)[C@@H](O)[C@H](O)[C@H]3O)c(O)c([N+](=O)[O-])c2)n1	ng·h/mL	75

Then there is this compound:
Give its AUC(0-t) value. Item: Cc1c(Cl)c(C)[n+]([O-])c(Cl)c1-c1noc(-c2cc(O)c(O)c([N+](=O)[O-])c2)n1 [opicapone, reference compound] 1830

###

- Format: in vivo, human
- test-conditions: male, human, plasma, oral, 100 mg
measured-quantity: half-life (h)
Express the result in h but write the number alone.

Give its half-life value. Item: Cc1c(Cl)c(C)[n+]([O-])c(Cl)c1-c1noc(-c2cc(O)c(O)c([N+](=O)[O-])c2)n1 [opicapone, reference compound] 1

###

- Format: in vivo, human
- test-conditions: male, human, plasma, oral, 100 mg, t max, median (minimum - maximum)
measured-quantity: Tmax (h)
Express the result in h but write the number alone.

molecule	assay-value
Cc1c(Cl)c(C)[n+]([O-])c(Cl)c1-c1noc(-c2cc(O[C@@H]3O[C@H](C(=O)O)[C@@H](O)[C@H](O)[C@H]3O)c(O)c([N+](=O)[O-])c2)n1 [BIA 9‐1106]	2

Then there is this molecule:
Give its Tmax value. Item: Cc1c(Cl)c(C)[n+]([O-])c(Cl)c1-c1noc(-c2cc(O)c(O)c([N+](=O)[O-])c2)n1 [opicapone, reference compound] 2

###

- assay-method-text: Metabolite profiling in plasma AUC pool by LC-AMS
- Type: in vivo, human
- test-conditions: average, AMS radiodetection
Where % of total circulating radioactivity equals or exceeds 7%, the correct label is rule met; where it does not, the label is rule not met.

molecule	label
Cc1c(Cl)c(C)[n+]([O-])c(Cl)c1-c1noc(-c2cc(OS(=O)(=O)O)c(O)c([N+](=O)[O-])c2)n1	rule met
COc1cc(-c2nc(-c3c(C)c(Cl)c(C)[n+]([O-])c3Cl)no2)cc([N+](=O)[O-])c1O [BIA 9‐1100]	rule not met
COc1cc(-c2nc(-c3c(C)c(Cl)c(C)[n+]([O-])c3Cl)no2)cc([N+](=O)[O-])c1O [BIA 9‐1101]	rule not met
Cc1c(Cl)c(C)[n+]([O-])c(Cl)c1-c1noc(-c2cc(O)c(O)c([N+](=O)[O-])c2)n1 [opicapone, reference compound]	rule met
COc1c(O)cc(-c2nc(-c3c(C)c(Cl)c(C)[n+]([O-])c3Cl)no2)cc1[N+](=O)[O-]	rule not met
COc1c(O)cc(-c2nc(-c3c(C)c(Cl)c(C)[n+]([O-])c3SC[C@H](N)C(=O)O)no2)cc1[N+](=O)[O-].Cl	rule not met

For the next question, use this molecule.
Evaluate COc1c(OS(=O)(=O)O)cc(-c2nc(-c3c(C)c(Cl)c(C)[n+]([O-])c3Cl)no2)cc1[N+](=O)[O-].c1ccncc1 : % of total circulating radioactivity at minimum 7%? rule not met

Data origin: paper PMC9546099
